- TARGET_OR_SYSTEM: hSTING-R232 (Homo sapiens (Human), UniProt Q86WV6, H232R)
- TEST_METHOD_NOTES: STING differential scanning fluorimetry (DSF) assay, WT human STING
- MEASUREMENT_CONDITIONS: WT (R232) human STING aa140-379, net shift in melting temperature
READOUT_LABEL: WT_DSF_hSWAT Tm Shift (° C.)

1) COc1c(Cl)ccc2c(=O)c3ccc(C4=CCOCC4)cc3n(CC(=O)O)c12	D (“D” > 7° C.)
2) O=C(O)Cn1c2cc(C3CCC(O)CC3)ccc2c(=O)c2ccc(Cl)c(Cl)c21 (stereo not shown) [Compound 214]	D (“D” > 7° C.)

====

pIC50: −log10 of the molar value.
Reported pIC50, hSTING-CTD (Homo sapiens (Human), UniProt Q86WV6).

// solved cases for pIC50 follow
1) O=C(O)Cn1c2cc(N3CCOCC3)ccc2c(=O)c2ccc(Cl)c(Cl)c21 [Compound 60]	> 4.00
2) Cc1ccc2c(=O)c3cc(CCC4CCCCC4)ccc3n(CC(=O)O)c2c1 [Compound 76]	3.30 to 4.00
3) Cc1ccc2c(c1C)c(=O)c1ccc(Cl)c(Cl)c1n2CC(=O)O [Compound 96]	3.30 to 4.00
4) CN(C)c1ccc2c(=O)c3ccc(Cl)c(Cl)c3n(CC(=O)O)c2c1 [Compound 71]	3.30 to 4.00
5) CC(C)(C)c1ccc2c(=O)c3ccc(Cl)c(OC4CCC4)c3n(CC(=O)O)c2c1 [Compound 228]	< 3.00

Count: 8. Required value per item: pIC50.
1. O=C(O)Cn1c2ccccc2c(=O)c2cc(CCc3ccccc3)ccc21 [Compound 23]
2. Cc1ccc2c(=O)c3cc(CCc4ccccc4C)ccc3n(CC(=O)O)c2c1 [Compound 75]
3. Cc1cc2c(=O)c3ccc(Cl)c(Cl)c3n(CC(=O)O)c2cc1F [Compound 93]
4. O=C(O)Cn1c2ccccc2c(=O)c2c(Cl)c(Cl)ccc21 [Compound 48]
5. O=C(O)CN1c2ccccc2Cc2cc(CCC3CCCCC3)ccc21 [Compound 90]
6. O=C(O)Cn1c2ccccc2c(=O)c2cc(C#CC3CCCCC3)ccc21 [Compound 39]
7. Cc1ccc2c(=O)c3ccccc3n(CC(=O)O)c2c1Cl [Compound 19]
8. O=C(O)Cn1c2cccc(F)c2c(=O)c2ccc(Cl)c(Cl)c21 [Compound 31]

3.30 to 4.00
3.30 to 4.00
3.00 to 3.30
< 3.00
3.00 to 3.30
3.30 to 4.00
< 3.00
3.00 to 3.30

Count: 2. Required value per item: pIC50.
1. Cc1cccc(-c2ccc3c(c2)c(=O)c2ccc(Cl)c(Cl)c2n3CC(=O)O)c1 [Compound 68]
2. Cc1cc2c(=O)c3ccc(Cl)c(Cl)c3n(CC(=O)O)c2cc1C [Compound 94]

1: > 4.00; 2: 3.30 to 4.00

Under hSTING-CTD (Homo sapiens (Human), UniProt Q86WV6), report pIC50 for Cc1ccc2c(=O)c3cccc(C)c3n(CC(=O)O)c2c1 [Compound 11] 3.00 to 3.30

====

- TARGET_OR_SYSTEM: hSTING-WT (Homo sapiens (Human), UniProt Q86WV6, H232R)
- Sequence (Q86WV6 140-379 H232R): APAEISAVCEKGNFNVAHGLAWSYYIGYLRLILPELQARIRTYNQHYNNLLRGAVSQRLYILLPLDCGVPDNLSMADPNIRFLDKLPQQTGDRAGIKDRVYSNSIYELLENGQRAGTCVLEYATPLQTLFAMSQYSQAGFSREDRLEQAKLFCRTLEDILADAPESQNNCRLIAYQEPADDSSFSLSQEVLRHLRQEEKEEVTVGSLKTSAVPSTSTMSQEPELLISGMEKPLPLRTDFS
- TEST_METHOD_NOTES: Radiometric filtration binding competition assay, hSTING-WT
READOUT_LABEL: IC50

1) COc1c(Cl)ccc2c(=O)c3ccc(SC)cc3n(CC(=O)O)c12	20 to 100 µM
2) CN(C)c1c(Cl)ccc2c(=O)c3ccc(Nc4ccccc4)cc3n(CC(=O)O)c12	< 20 µM

Identify measured IC50 associated with CCOc1c(Cl)ccc2c(=O)c3ccc(C(C)(C)C)cc3n(CC(=O)O)c12 20 to 100 µM
